- Test system: primary T-PLL patient cells (S008)
- Test Name: viability relative to DMSO control (fraction); higher = less drug effect (more viable cells)
- Test Settings: 0.024 µM; 48 h
Property Name: viability
Write no unit; give the number alone.

The examples below pair each entry with its known result.
1) Cc1cc(Nc2ncc(Cl)c(Nc3ccccc3S(=O)(=O)C(C)C)n2)c(OC(C)C)cc1C1CCNCC1 [Ceritinib] : 0.991
2) CNC(=O)c1cc(Oc2ccc(NC(=O)Nc3ccc(Cl)c(C(F)(F)F)c3)cc2)ccn1 [Sorafenib] : 0.955
3) O=C(O)CSc1cc(NS(=O)(=O)c2ccc(Br)cc2)c2ccccc2c1O [UMI-77] : 0.976
4) Nc1ncn([C@H]2C[C@H](O)[C@@H](CO)O2)c(=O)n1 [Decitabine (Dacogen)] : 0.968
5) O=C(Nc1cccc(C(F)(F)F)c1)Nc1cc(S(=O)(=O)NC2CC2)ccc1-c1ccsc1 [AGI-6780] : 0.865
6) N#CC[C@H](C1CCCC1)n1cc(-c2ncnc3[nH]ccc23)cn1 [Ruxolitinib] : 0.966

Now, please, on to the next compound.
Returns the measured viability for the input compound. Input: Nc1nc(Cl)nc2c1ncn2[C@@H]1O[C@H](CO)[C@@H](O)[C@@H]1F [Clofarabine]
0.989

* * *

The following compounds are shown together with reported viability values.
- Test system: primary AML patient cells (S017)
- Test Name: viability relative to DMSO control (fraction); higher = less drug effect (more viable cells)
- Test Settings: 0.12 µM; 48 h
Write no unit; give the number alone.

The examples below pair each entry with its known result.
1. O=C(O)CSc1cc(NS(=O)(=O)c2ccc(Br)cc2)c2ccccc2c1O : 1.02
2. Nc1nc(Cl)nc2c1ncn2[C@@H]1O[C@H](CO)[C@@H](O)[C@@H]1F : 0.91
3. O=C(Nc1cccc(C(F)(F)F)c1)Nc1cc(S(=O)(=O)NC2CC2)ccc1-c1ccsc1 : 0.938

Returns the measured viability for the input compound. Input: Nc1ncn([C@H]2C[C@H](O)[C@@H](CO)O2)c(=O)n1
0.954

Returns the measured viability for the input compound. Input: CNC(=O)c1cc(Oc2ccc(NC(=O)Nc3ccc(Cl)c(C(F)(F)F)c3)cc2)ccn1
0.988

* * *

- Tested on: primary ALL patient cells (S048)
- Test Name: viability relative to DMSO control (fraction); higher = less drug effect (more viable cells)
- Test Settings: 2 µM; 48 h
Property Name: viability
Write no unit; give the number alone.

Returns the measured viability for the input molecule. Input: CC1(COc2ccc3c(c2)ncn3-c2ccc3cccc(N4CCC(N)CC4)c3n2)COC1 [Crenolanib]
0.554

Returns the measured viability for the input molecule. Input: Cc1sc2c(c1C)C(c1ccc(Cl)cc1)=N[C@@H](CC(=O)Nc1ccc(O)cc1)c1nnc(C)n1-2 [OTX015]
0.305

Returns the measured viability for the input molecule. Input: CC[C@H](Nc1ncnc2[nH]cnc12)c1nc2cccc(F)c2c(=O)n1-c1ccccc1 [Idelalisib]
0.752

Returns the measured viability for the input molecule. Input: Nc1nc(F)nc2c1ncn2[C@@H]1O[C@H](CO)[C@@H](O)[C@@H]1O [Fludarabine]
0.0558

* * *

- Tested on: primary T-PLL patient cells (S008)
- Test Name: viability relative to DMSO control (fraction); higher = less drug effect (more viable cells)
- Test Settings: 0.12 µM; 48 h
The following molecules are shown together with reported viability values.
Write no unit; give the number alone.

Returns the measured viability for the input molecule. Input: CCc1nc(C(N)=O)c(Nc2ccc(N3CCC(N4CCN(C)CC4)CC3)c(OC)c2)nc1NC1CCOCC1
0.909

Returns the measured viability for the input molecule. Input: CCN1CCN(Cc2ccc(Nc3ncc(F)c(-c4cc(F)c5nc(C)n(C(C)C)c5c4)n3)nc2)CC1
0.981

Returns the measured viability for the input molecule. Input: Oc1ccc(/C=C/c2cc(O)cc(O)c2)cc1
1.02

Returns the measured viability for the input molecule. Input: O=C(c1cc(Cc2n[nH]c(=O)c3ccccc23)ccc1F)N1CCN(C(=O)C2CC2)CC1
0.962

* * *

- Test system: primary AML patient cells (S085)
- Test Name: viability relative to DMSO control (fraction); higher = less drug effect (more viable cells)
- Test Settings: 3 µM; 48 h
Sorting guide: entries reporting viability beneath 0.8 go in the satisfied pile, the rest go in the not satisfied pile.

The following molecules have reported results that may help.
1) O=C(O)CSc1cc(NS(=O)(=O)c2ccc(Br)cc2)c2ccccc2c1O : not satisfied
2) Nc1nc(Cl)nc2c1ncn2[C@@H]1O[C@H](CO)[C@@H](O)[C@@H]1F : satisfied
3) Oc1ccc(/C=C/c2cc(O)cc(O)c2)cc1 : satisfied
4) N#Cc1ccnc(N2C(=O)CC[C@H]2C(=O)N(c2cncc(F)c2)[C@H](C(=O)NC2CC(F)(F)C2)c2ccccc2Cl)c1 : not satisfied
5) CCN1CCN(Cc2ccc(Nc3ncc(F)c(-c4cc(F)c5nc(C)n(C(C)C)c5c4)n3)nc2)CC1 : satisfied

Record C[C@@H](Oc1cc(-c2cnn(C3CCNCC3)c2)cnc1N)c1c(Cl)ccc(F)c1Cl : is its viability strictly below 0.8?
satisfied

* * *

- Tested on: primary CLL patient cells (S031)
- Test Name: viability relative to DMSO control (fraction); higher = less drug effect (more viable cells)
- Test Settings: 0.024 µM; 48 h
Property Name: viability
Write no unit; give the number alone.

The examples below pair each entry with its known result.
1. C[C@@H](Oc1cc(-c2cnn(C3CCNCC3)c2)cnc1N)c1c(Cl)ccc(F)c1Cl [Crizotinib] : 1.1
2. Cc1cc(Nc2ncc(Cl)c(Nc3ccccc3S(=O)(=O)C(C)C)n2)c(OC(C)C)cc1C1CCNCC1 [Ceritinib] : 1
3. CS(=O)(=O)c1ccc(C(=O)Nc2ccc(Cl)c(-c3ccccn3)c2)c(Cl)c1 [Vismodegib] : 0.85
4. CCc1nc(C(N)=O)c(Nc2ccc(N3CCC(N4CCN(C)CC4)CC3)c(OC)c2)nc1NC1CCOCC1 [Gilteritinib] : 1.13

Returns the measured viability for the input compound. Input: O=C(O)CSc1cc(NS(=O)(=O)c2ccc(Br)cc2)c2ccccc2c1O [UMI-77]
0.84

Returns the measured viability for the input compound. Input: N#Cc1ccnc(N2C(=O)CC[C@H]2C(=O)N(c2cncc(F)c2)[C@H](C(=O)NC2CC(F)(F)C2)c2ccccc2Cl)c1 [AG-120]
0.982

* * *

- System: primary ALL patient cells (S088)
- Test Name: viability relative to DMSO control (fraction); higher = less drug effect (more viable cells)
- Test Settings: 0.024 µM; 48 h
The following compounds are shown together with reported viability values.
Write no unit; give the number alone.

The examples below pair each entry with its known result.
1) Cc1cc(Nc2ncc(Cl)c(Nc3ccccc3S(=O)(=O)C(C)C)n2)c(OC(C)C)cc1C1CCNCC1 : 0.923
2) CCc1nc(C(N)=O)c(Nc2ccc(N3CCC(N4CCN(C)CC4)CC3)c(OC)c2)nc1NC1CCOCC1 : 0.698
3) N#Cc1ccnc(N2C(=O)CC[C@H]2C(=O)N(c2cncc(F)c2)[C@H](C(=O)NC2CC(F)(F)C2)c2ccccc2Cl)c1 : 0.727

Returns the measured viability for the input compound. Input: C[C@@H](Oc1cc(-c2cnn(C3CCNCC3)c2)cnc1N)c1c(Cl)ccc(F)c1Cl
0.93

Returns the measured viability for the input compound. Input: CCN1CCN(Cc2ccc(Nc3ncc(F)c(-c4cc(F)c5nc(C)n(C(C)C)c5c4)n3)nc2)CC1
0.616

Returns the measured viability for the input compound. Input: N#CC[C@H](C1CCCC1)n1cc(-c2ncnc3[nH]ccc23)cn1
0.974

* * *

- System: primary AML patient cells (S081)
- Test Name: viability relative to DMSO control (fraction); higher = less drug effect (more viable cells)
- Test Settings: 0.6 µM; 48 h
Property Name: viability
Write no unit; give the number alone.

1. O=C(c1cc(Cc2n[nH]c(=O)c3ccccc23)ccc1F)N1CCN(C(=O)C2CC2)CC1 [Olaparib] : 0.889
2. N#CC[C@H](C1CCCC1)n1cc(-c2ncnc3[nH]ccc23)cn1 [Ruxolitinib] : 0.951
3. Nc1nc(Cl)nc2c1ncn2[C@@H]1O[C@H](CO)[C@@H](O)[C@@H]1F [Clofarabine] : 0.861
4. C[C@@H](Oc1cc(-c2cnn(C3CCNCC3)c2)cnc1N)c1c(Cl)ccc(F)c1Cl [Crizotinib] : 0.895

Returns the measured viability for the input molecule. Input: CCN1CCN(Cc2ccc(Nc3ncc(F)c(-c4cc(F)c5nc(C)n(C(C)C)c5c4)n3)nc2)CC1
0.833

* * *

- Tested on: primary DLBCL patient cells (S082)
- Test Name: viability relative to DMSO control (fraction); higher = less drug effect (more viable cells)
- Test Settings: 0.6 µM; 48 h
Sorting guide: entries reporting viability beneath 0.9 go in the t pile, the rest go in the f pile.

1) Cc1cc(Nc2ncc(Cl)c(Nc3ccccc3S(=O)(=O)C(C)C)n2)c(OC(C)C)cc1C1CCNCC1 : t

Record CNC(=O)c1cc(Oc2ccc(NC(=O)Nc3ccc(Cl)c(C(F)(F)F)c3)cc2)ccn1 : is its viability strictly below 0.9?
f

Record Oc1ccc(/C=C/c2cc(O)cc(O)c2)cc1 : is its viability strictly below 0.9?
t

Record Nc1ncn([C@H]2C[C@H](O)[C@@H](CO)O2)c(=O)n1 : is its viability strictly below 0.9?
f
